Molecular target: IDH1 R132C (Homo sapiens (Human), UniProt O75874, R132C)
Assay: Improved cell-based assay: D-2-HG in HT1080 cells over-expressing D-2-HG dehydrogenase
Conditions: 1 μM, 12 h
Excerpt: The present disclosure also provides a cell based method for assaying IDH inhibition and selectivity of the compounds in human fibrosacoma cell line HT1080 and cholangiocarcinoma cell line HCCC 9810, which harbor endogenous heterozygous IDH1 R132C and R132H mutation respectively and accumulate D-2-HG Tumor derived IDH mutant lost its normal activity of producing α-KG and gained a new activity of producing D-2-HG D-2-HG is a metabolite specifically elevated in IDH mutated tumor samples. […]
Sequence (O75874 2-414 R132C): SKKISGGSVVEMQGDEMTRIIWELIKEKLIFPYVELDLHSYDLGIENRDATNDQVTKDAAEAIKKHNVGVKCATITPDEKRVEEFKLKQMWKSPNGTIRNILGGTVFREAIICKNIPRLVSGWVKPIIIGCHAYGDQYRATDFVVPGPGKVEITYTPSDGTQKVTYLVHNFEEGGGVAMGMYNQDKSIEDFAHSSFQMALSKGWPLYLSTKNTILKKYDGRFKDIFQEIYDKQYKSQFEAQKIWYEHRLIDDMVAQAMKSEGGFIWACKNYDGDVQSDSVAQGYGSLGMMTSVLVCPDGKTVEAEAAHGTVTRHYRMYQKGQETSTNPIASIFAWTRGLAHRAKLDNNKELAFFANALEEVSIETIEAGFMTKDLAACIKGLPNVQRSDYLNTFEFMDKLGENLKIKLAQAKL
The label true is reserved for Inhibition ratio of D-2-HG in HT1080 cell strictly under 50%; false covers values equal to or above it.

>  <STRUCTURE_AS_SMILES>
CCN1Cc2c(ccnc2N[C@@H](C)c2ccc(Oc3ccccc3)c(F)c2)C1=O

>  <ASSIGNED_LABEL>
true

$$$$
>  <STRUCTURE_AS_SMILES>
CCN1Cc2c(ccnc2N[C@@H](C)c2ccc(Oc3ccc(C)cc3)cc2)C1=O

>  <ASSIGNED_LABEL>
false

$$$$
>  <STRUCTURE_AS_SMILES>
Cc1ccc(Oc2ccc([C@H](C)Nc3nccc4c3CN(C(C)C)C4=O)cc2)cc1

>  <ASSIGNED_LABEL>
false

$$$$
>  <STRUCTURE_AS_SMILES>
CCN1Cc2c(ccnc2N[C@@H](C)c2ccc(Oc3cccc(F)c3)cc2)C1=O

>  <ASSIGNED_LABEL>
true

$$$$
>  <STRUCTURE_AS_SMILES>
CCN1Cc2c(ccnc2N[C@@H](C)c2ccc(Oc3ccc(C)cc3)c(F)c2)C1=O

>  <ASSIGNED_LABEL>
false

$$$$
>  <STRUCTURE_AS_SMILES>
CCN1Cc2c(ccnc2N[C@@H](C)c2ccc(Oc3ccccc3F)cc2)C1=O

>  <ASSIGNED_LABEL>
false

$$$$

---

assay: in vitro; settings: mouse, microsomes, pH 7.4, T1/2

>  <COMPOUND>
CCN1Cc2c(ccnc2N[C@@H](C)c2ccc(Oc3ccc(C)cc3)cc2)C1=O [Compound 16]

>  <half-life at 1 μM (min)>
17.9

$$$$

---

assay: In vivo pharmacokinetics in ICR mouse; settings: male, plasma, po, p.o. dose of 10 mg · kg^−1
PROPERTY_MEASURED: Tmax

>  <STRUCTURE_AS_SMILES>
CCN1Cc2c(ccnc2N[C@@H](C)c2ccc(Oc3ccccc3)c(F)c2)C1=O

>  <READING>
15 min

$$$$

---

assay: Metabolic stability in mouse liver microsome; settings: mouse, microsomes, pH 7.4

>  <MOLECULE>
Cc1ncc2n1-c1ccc(Cl)cc1C(c1ccccc1F)=NC2 [Positive control, Midazolam, reference compound]

>  <microsomal CLint at 1 μM>
482 µL/min/mg

$$$$

---

experiment: in vitro; details: dog, microsomes, pH 7.4, CLint
PROPERTY_MEASURED: microsomal CLint at 1 μM

>  <STRUCTURE_AS_SMILES>
CCN1Cc2c(ccnc2N[C@@H](C)c2ccc(Oc3ccc(C)cc3)cc2)C1=O

>  <READING>
23 µL/min/mg

$$$$

---

experiment: Metabolic stability in monkey liver microsome; details: monkey, microsomes, pH 7.4
PROPERTY_MEASURED: half-life at 1 μM (min)

>  <COMPOUND>
Cc1ncc2n1-c1ccc(Cl)cc1C(c1ccccc1F)=NC2 [Positive control, Midazolam, reference compound]

>  <SCALE_UNIT>
min

>  <READING>
3.29

$$$$

---

experiment: In vivo pharmacokinetics in ICR mouse; details: male, plasma, iv, i.v. dose of 2 mg · kg^−1
PROPERTY_MEASURED: half-life (min)

>  <STRUCTURE_AS_SMILES>
CCN1Cc2c(ccnc2N[C@@H](C)c2ccc(Oc3ccccc3)c(F)c2)C1=O

>  <READING>
168

$$$$

---

molecular target: IDH1 R132C (Homo sapiens (Human), UniProt O75874, R132C); test: Improved cell-based assay: D-2-HG in HT1080 cells over-expressing D-2-HG dehydrogenase; conditions: 2.5 μM, 12 h
If the reported Inhibition ratio of D-2-HG in HT1080 cell equals or exceeds 70%, assign Condition met. If not, assign Condition not met.

>  <STRUCTURE_AS_SMILES>
CCN1Cc2c(ccnc2N[C@@H](C)c2ccc(Oc3ccccc3F)cc2)C1=O

>  <ASSIGNED_LABEL>
Condition met

$$$$
>  <STRUCTURE_AS_SMILES>
CCN1Cc2c(ccnc2N[C@@H](C)c2ccc(Oc3cccc(F)c3)cc2)C1=O

>  <ASSIGNED_LABEL>
Condition not met

$$$$
>  <STRUCTURE_AS_SMILES>
CCN1Cc2c(ccnc2N[C@@H](C)c2ccc(Oc3ccc(C)cc3)cc2)C1=O

>  <ASSIGNED_LABEL>
Condition not met

$$$$

---

test: in vitro; settings: rat, microsomes, pH 7.4, CLint

>  <STRUCTURE_AS_SMILES>
CCN1Cc2c(ccnc2N[C@@H](C)c2ccc(Oc3ccc(C)cc3)cc2)C1=O

>  <microsomal CLint at 1 μM>
66.5 µL/min/mg

$$$$

---

assay: In vivo pharmacokinetics in ICR mouse; conditions: male, plasma, iv, i.v. dose of 2 mg · kg^−1, read-out: AUC0-inf
PROPERTY_MEASURED: AUC0-inf (ng·h/mL)

>  <MOLECULE>
CCN1Cc2c(ccnc2N[C@@H](C)c2ccc(Oc3ccccc3)c(F)c2)C1=O [Compound 23]

>  <READING>
1310

$$$$

---

test: Metabolic stability in rat liver microsome; conditions: rat, microsomes, pH 7.4
PROPERTY_MEASURED: microsomal CLint at 1 μM (µL/min/mg)

>  <MOLECULE>
Cc1ncc2n1-c1ccc(Cl)cc1C(c1ccccc1F)=NC2 [Positive control, Midazolam, reference compound]

>  <PROPERTY_MEASURED>
microsomal CLint at 1 μM

>  <SCALE_UNIT>
µL/min/mg

>  <READING>
871

$$$$

---

assay: Metabolic stability in mouse plasma; format: in vitro ADME; conditions: both sexes, #2

>  <STRUCTURE_AS_SMILES>
CCN1Cc2c(ccnc2N[C@@H](C)c2ccc(Oc3ccc(C)cc3)cc2)C1=O

>  <half-life at 2 μM (h)>
15.7

$$$$

---

Attribute: Inhibition ratio of D-2-HG in HT1080 cell
target: IDH1 R132C (Homo sapiens (Human), UniProt O75874, R132C); experiment: Improved cell-based assay: D-2-HG in HT1080 cells over-expressing D-2-HG dehydrogenase; conditions: 5 μM, 12 h
PROPERTY_MEASURED: Inhibition ratio of D-2-HG in HT1080 cell

>  <STRUCTURE_AS_SMILES>
CCN1Cc2c(ccnc2N[C@@H](C)c2ccc(Oc3ccc(C)cc3)c(F)c2)C1=O

>  <READING>
92.1%

$$$$
>  <STRUCTURE_AS_SMILES>
CCN1Cc2c(ccnc2N[C@@H](C)c2ccc(Oc3cccc(F)c3)cc2)C1=O

>  <READING>
76.1%

$$$$
>  <STRUCTURE_AS_SMILES>
Cc1ccc(Oc2ccc([C@H](C)Nc3nccc4c3CN(C(C)C)C4=O)cc2)cc1

>  <READING>
89.1%

$$$$
>  <STRUCTURE_AS_SMILES>
CCN1Cc2c(ccnc2N[C@@H](C)c2ccc(Oc3ccccc3F)cc2)C1=O

>  <READING>
87.8%

$$$$
>  <STRUCTURE_AS_SMILES>
CCN1Cc2c(ccnc2N[C@@H](C)c2ccc(Oc3ccccc3)c(F)c2)C1=O

>  <READING>
76.7%

$$$$
>  <STRUCTURE_AS_SMILES>
CCN1Cc2c(ccnc2N[C@@H](C)c2ccc(Oc3ccc(C)cc3)cc2)C1=O

>  <READING>
82.2%

$$$$

---

Attribute: IC50
target: IDH1 R132C (Homo sapiens (Human), UniProt O75874, R132C); experiment: Biochemical assay for inhibition of mutant IDH1 R132C; conditions: tested in triplet
Sequence (O75874 whole entry R132C): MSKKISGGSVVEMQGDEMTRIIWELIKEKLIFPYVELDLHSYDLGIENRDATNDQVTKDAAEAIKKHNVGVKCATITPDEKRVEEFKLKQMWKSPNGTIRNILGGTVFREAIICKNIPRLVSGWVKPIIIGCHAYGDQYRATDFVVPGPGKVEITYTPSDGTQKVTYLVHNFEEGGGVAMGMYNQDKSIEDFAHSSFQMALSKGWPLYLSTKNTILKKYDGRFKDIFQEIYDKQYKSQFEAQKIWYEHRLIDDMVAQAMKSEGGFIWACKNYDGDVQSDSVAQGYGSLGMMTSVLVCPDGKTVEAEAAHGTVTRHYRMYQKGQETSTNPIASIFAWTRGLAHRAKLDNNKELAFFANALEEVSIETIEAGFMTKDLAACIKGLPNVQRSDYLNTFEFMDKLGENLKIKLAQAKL

>  <STRUCTURE_AS_SMILES>
CCN1Cc2c(ccnc2N[C@@H](C)c2ccc(Oc3cccc(C)c3)cc2)C1=O

>  <IC50>
≤ 1.5 µM

$$$$
>  <STRUCTURE_AS_SMILES>
CCN1Cc2c(ccnc2N[C@@H](C)c2ccc(Oc3ccc(C)cc3)c(F)c2)C1=O

>  <IC50>
< 1.5 µM

$$$$
>  <STRUCTURE_AS_SMILES>
CCN1Cc2c(ccnc2N[C@@H](C)c2ccc(OC)cc2)C1=O

>  <IC50>
10 to 15 µM

$$$$
>  <STRUCTURE_AS_SMILES>
C[C@H](Nc1nccc2c1CN(Cc1ccccc1)C2=O)c1ccccc1

>  <IC50>
10 to 15 µM

$$$$
>  <STRUCTURE_AS_SMILES>
CCN1Cc2c(ccnc2N[C@@H](C)c2ccc(Oc3ccccc3)cc2)C1=O

>  <IC50>
≤ 1.5 µM

$$$$
>  <STRUCTURE_AS_SMILES>
Cc1ccc(Oc2ccc([C@H](C)Nc3nccc4c3CN(C(C)C)C4=O)cc2)cc1

>  <IC50>
< 1.5 µM

$$$$
>  <STRUCTURE_AS_SMILES>
CCN1Cc2c(ccnc2N[C@@H](C)c2ccc(Oc3ccc(C)cc3)cc2)C1=O

>  <IC50>
< 1.5 µM

$$$$
>  <STRUCTURE_AS_SMILES>
C[C@H](Nc1nccc2c1CN(C1CC1)C2=O)c1ccccc1

>  <IC50>
10 to 15 µM

$$$$
>  <STRUCTURE_AS_SMILES>
CC(C)N1Cc2c(ccnc2N[C@@H](C)c2ccccc2)C1=O

>  <IC50>
10 to 15 µM

$$$$
>  <STRUCTURE_AS_SMILES>
CCN1Cc2c(ccnc2N[C@@H](C)c2ccc(Oc3ccccc3F)cc2)C1=O

>  <IC50>
< 1.5 µM

$$$$
>  <STRUCTURE_AS_SMILES>
COc1ccc(CN2Cc3c(ccnc3N[C@@H](C)c3ccccc3)C2=O)cc1

>  <IC50>
10 to 15 µM

$$$$
>  <STRUCTURE_AS_SMILES>
CCN1Cc2c(ccnc2N[C@@H](C)c2ccc(Oc3ccccc3)c(F)c2)C1=O

>  <IC50>
< 1.5 µM

$$$$
>  <STRUCTURE_AS_SMILES>
COCCN1Cc2c(ccnc2N[C@@H](C)c2ccccc2)C1=O

>  <IC50>
10 to 15 µM

$$$$
>  <STRUCTURE_AS_SMILES>
CCN1Cc2c(ccnc2N[C@@H](C)c2ccc(F)cc2)C1=O

>  <IC50>
10 to 15 µM

$$$$
>  <STRUCTURE_AS_SMILES>
CCN1Cc2c(ccnc2N[C@@H](C)c2ccc(Oc3cccc(F)c3)cc2)C1=O

>  <IC50>
< 1.5 µM

$$$$
>  <STRUCTURE_AS_SMILES>
CCN1Cc2c(ccnc2N[C@@H](C)c2ccc(Br)cc2)C1=O

>  <IC50>
10 to 15 µM

$$$$
>  <STRUCTURE_AS_SMILES>
CCN1Cc2c(ccnc2N[C@@H](C)c2ccc(C(=O)Nc3ccccc3)cc2)C1=O

>  <IC50>
10 to 15 µM

$$$$
>  <STRUCTURE_AS_SMILES>
CCN1Cc2c(ccnc2N[C@@H](C)c2ccc(C)cc2)C1=O

>  <IC50>
10 to 15 µM

$$$$
>  <STRUCTURE_AS_SMILES>
CCN1Cc2c(ccnc2N[C@@H](C)c2ccc(Oc3ccc(OC)cc3)cc2)C1=O

>  <IC50>
≤ 1.5 µM

$$$$
>  <STRUCTURE_AS_SMILES>
CCN1Cc2c(ccnc2N[C@@H](C)c2ccc(Oc3ccccc3C)cc2)C1=O

>  <IC50>
≤ 1.5 µM

$$$$
>  <STRUCTURE_AS_SMILES>
CCCCN1Cc2c(ccnc2N[C@@H](C)c2ccccc2)C1=O

>  <IC50>
10 to 15 µM

$$$$
>  <STRUCTURE_AS_SMILES>
CCN1Cc2c(ccnc2N[C@@H](C)c2ccccc2)C1=O

>  <IC50>
10 to 15 µM

$$$$
>  <STRUCTURE_AS_SMILES>
CCOC(=O)c1ccc([C@H](C)Nc2nccc3c2CN(CC)C3=O)cc1

>  <IC50>
10 to 15 µM

$$$$
>  <STRUCTURE_AS_SMILES>
CCN1Cc2c(ccnc2N[C@@H](C)c2ccc(-c3cn(C)nn3)cc2)C1=O

>  <IC50>
10 to 15 µM

$$$$
>  <STRUCTURE_AS_SMILES>
CCN1Cc2c(ccnc2N[C@@H](C)c2ccc(Oc3ccc(F)cc3)cc2)C1=O

>  <IC50>
1.5 to 10 µM

$$$$
